target: D(4) dopamine receptor (Homo sapiens, UniProt P21917); assay: Binding Affinity was tested on the high affinity site of Dopamine receptor D4.4
Sequence (P21917 whole entry): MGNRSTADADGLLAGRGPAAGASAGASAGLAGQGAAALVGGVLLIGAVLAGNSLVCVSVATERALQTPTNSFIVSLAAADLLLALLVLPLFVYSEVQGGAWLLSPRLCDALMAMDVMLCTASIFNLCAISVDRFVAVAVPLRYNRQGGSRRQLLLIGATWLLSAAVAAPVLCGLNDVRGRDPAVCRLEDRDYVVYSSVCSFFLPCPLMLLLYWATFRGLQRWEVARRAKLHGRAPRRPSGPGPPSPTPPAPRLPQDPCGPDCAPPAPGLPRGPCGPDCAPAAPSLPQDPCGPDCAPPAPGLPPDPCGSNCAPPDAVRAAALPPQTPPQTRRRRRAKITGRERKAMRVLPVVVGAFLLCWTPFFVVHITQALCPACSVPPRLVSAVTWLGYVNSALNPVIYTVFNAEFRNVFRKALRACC
pKi: −log10 of the molar value.
readout-type: pKi

Worked examples, 2 compounds total:
[[record]]
compound = "CCCN(CCC)C1CC=C(C#N)CC1 (stereo not drawn)"
tested_on = "D(4) dopamine receptor (Homo sapiens, UniProt P21917)"
readout_type = "pKi"
obs_value = "< 4.70"

[[record]]
compound = "CCCN(CCC)C1CCC(=C(C#N)C#N)CC1 (stereo not drawn)"
tested_on = "D(4) dopamine receptor (Homo sapiens, UniProt P21917)"
readout_type = "pKi"
obs_value = "< 4.70"


pKi in this record for CCCN(CCC)C1CCC(=CC#N)CC1 (stereo not drawn) : < 4.70
